Tested on: NCI-H460 lung
assay_comment: NCI tumour cell line growth inhibition, 48 h
assay_metric: TGI

In the examples that follow, each entry is paired with its recorded TGI.
# compound_smiles, TGI
rows = [
    ("COc1cc(/C=C/c2cc(=O)cc(/C=C/c3ccc(O)c(OC)c3)o2)ccc1O", "> 100 µM"),
    ("C=CCOc1c(Br)cc(Br)cc1Br", "> 100 µM"),
    ("CNC(=O)c1cn(C[C@H](F)CCc2ccc(NC(=O)Cc3cc(OC4CC(F)(F)C4)cc(C)n3)nn2)nn1", "> 100 µM"),
]

Give TGI for each of the items listed below.
1. Cc1ccc(C(=O)c2[nH]c(Nc3cc(C)ccn3)c(C(=S)Nc3ccccc3)c2N)cc1
2. COc1ccc(/C(C)=N/NC(=S)N(C)C)c(O)c1
3. O=C(Nc1ccc(S(=O)(=O)N[C@@H](C(=O)O)c2ccccc2)cc1)c1ccc(F)cc1
4. COc1cc(-c2cn(C)c(=O)c(C)c2C)cc(OC)c1CN1CC[C@H](N2CCN(c3ccc(N[C@H]4CCC(=O)NC4=O)cc3F)CC2)C(F)(F)C1
5. CNc1nc(NC2CCCC2)nc(Sc2ccc(OC)cc2)n1

Result:
1. > 100 µM
2. > 100 µM
3. > 100 µM
4. 32.4 µM
5. > 10 µM

Please supply TGI for each of the following items, keeping them in order.
1. N/C(CSCCSC/C(N)=N/O)=N\O
2. COC(=O)/C=C\S/C(=C(/c1ccccc1)n1ccc(C(=O)OC)n1)c1ccccc1

Result:
> 100 µM
> 100 µM

----------
System: NCI-H23 lung
assay_comment: NCI tumour cell line growth inhibition, 48 h
assay_metric: TGI

Worked cases, TGI given:
# compound, TGI
data = [
    ("O=C(N/N=C/c1ccc(Cl)cc1Cl)c1ccccc1Nc1cccc(C(F)(F)F)c1", "32.8 µM"),
    ("COc1cc(OC)c(C2c3cc4c(cc3OC(N3CCOCC3)C2C)OCO4)c(OC)c1 (centres undefined)", "> 100 µM"),
    ("O=C1c2ccccc2-c2cccc3ccc(Cc4ccccc4)c1c23", "> 100 µM"),
    ("Cc1ccc2c(c1)C(=O)/C(=C\\c1ccc(Cl)cc1)CCS2(=O)=O", "10.2 µM"),
    ("CC/C=C\\C/C=C\\C1CC(=O)NCCCNCCCCN1 (centres undefined)", "> 100 µM"),
    ("COC(=O)C(CCCCNC(=O)CNC(=O)OCc1ccccc1)NC(=O)C(CCCCNC(=O)CNC(=O)OCc1ccccc1)NC(=O)OCc1ccccc1 (centres undefined)", "> 100 µM"),
    ("c1cc[c]([Sn]([S]c2cccc3cccnc23)([c]2ccccc2)[c]2ccccc2)cc1", "0.175 µM"),
    ("CCOC(=O)c1ccc(C(=O)/C(C(=O)OC(C)(C)C)=C2\\CCCN2C)n1C", "> 100 µM"),
]

Fill in TGI for each of the 4 compounds listed.
1. Nc1ccc(SC23CC4CC(CC(C4)C2)C3)cc1
2. Cc1ccc([N+](=O)[O-])c2c(NCCCN(C)C)ccnc12
3. COC(=O)c1cc(C(=O)OC)cc(-c2ccc3c(c2)-c2nc4c(c(-c5ccc(OC)cc5)c2CC3)CCc2ccc(-c3cc(C(=O)OC)cc(C(=O)OC)c3)cc2-4)c1
4. NCCN1CCN(c2nccc(-c3ccc4ccccc4c3)n2)CC1

Result:
["> 100 µM", "> 100 µM", "> 100 µM", "16.5 µM"]
